Measured values drawn from paper PMC5418574 for this set.

System: HCMV AD169-GFP
assayExplanation: HCMV GFP-based replication assay (automated GFP fluorometry)
Assay type: cell-based, human cytomegalovirus
setupConditions: 0.12 µM
Note to self: GFP signal, % of Inf./DMSO, MW (mean) under 90% means Yes, ties and anything higher get No.

Solved cases (4 shown):
compound	studySystem	classification
CC1CCC2C(C)C(OC(=O)CCC(=O)OCCCNc3ncnc4c(C#N)c(-c5ccc(C(F)(F)F)cc5)cc(-c5ccc(C(F)(F)F)cc5)c34)OC3OC4(C)CCC1C32OO4 (stereo not drawn)	HCMV AD169-GFP	Yes
N#Cc1c(-c2ccc(C(F)(F)F)cc2)cc(-c2ccc(C(F)(F)F)cc2)c2c(N)ncnc12	HCMV AD169-GFP	Yes
N#Cc1c(-c2ccc(F)cc2)cc(-c2ccc(F)cc2)c2c(N)ncnc12	HCMV AD169-GFP	No
COc1ccc(-c2cc(-c3ccc(OC)cc3)c3c(N)ncnc3c2C#N)cc1	HCMV AD169-GFP	Yes

Next up:
Check if GFP signal, % of Inf./DMSO, MW (mean) falls below 90% for "Cc1ccc(-c2cc(-c3ccc(C)cc3)c3c(N)ncnc3c2C#N)cc1" .
Yes

* * *

Test system: HCMV AD169-GFP
assayExplanation: HCMV GFP-based replication assay (automated GFP fluorometry)
Assay type: cell-based, human cytomegalovirus
setupConditions: 3.3 µM
measuredAttribute: GFP signal, % of Inf./DMSO, MW (mean) (%)
# unit: % | format: bare number

> print(dat)
                                   molecule                      measuredattribute  unitannotation  numericvalue
1  N#Cc1c(-c2ccc(C(F)(F)F)cc2)cc(-c2ccc(C(F)(F)F)cc2)c2c(N)ncnc12  GFP signal, % of Inf./DMSO, MW (mean)               %            58
2  Cc1ccc(-c2cc(-c3ccc(C)cc3)c3c(N)ncnc3c2C#N)cc1  GFP signal, % of Inf./DMSO, MW (mean)               %            53
3  N#Cc1c(-c2ccc(F)cc2)cc(-c2ccc(F)cc2)c2c(N)ncnc12  GFP signal, % of Inf./DMSO, MW (mean)               %            62
4  CC1CCC2C(C)C(OC(=O)CCC(=O)OCCCNc3ncnc4c(C#N)c(-c5ccc(F)cc5)cc(-c5ccc(F)cc5)c34)OC3OC4(C)CCC1C32OO4 (centres unmarked)  GFP signal, % of Inf./DMSO, MW (mean)               %             7

Look up HCMV AD169-GFP data: GFP signal, % of Inf./DMSO, MW (mean) of "COc1ccc(-c2cc(-c3ccc(OC)cc3)c3c(N)ncnc3c2C#N)cc1" , then report it.
31
